Source of measurements: patent US20250368742A1

Tested system: shed MICB005 polypeptide (human) (UniProt Q29980)
Protocol details: capture ELISA (anti-hFc / antibody / shed antigen / biotin-6D4)
Give Max OD450 for every item shown.
I only need the number, thanks.

// query I would be grateful if you could share the reported Max OD450 for #31 (antibody, V domains shown) VH: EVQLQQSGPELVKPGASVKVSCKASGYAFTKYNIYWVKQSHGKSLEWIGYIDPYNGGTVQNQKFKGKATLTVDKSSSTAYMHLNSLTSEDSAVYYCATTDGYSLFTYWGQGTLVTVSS VL: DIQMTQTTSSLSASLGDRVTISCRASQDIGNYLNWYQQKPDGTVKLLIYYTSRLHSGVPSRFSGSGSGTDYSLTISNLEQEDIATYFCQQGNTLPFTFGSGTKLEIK .
// result 1.37

// query I would be grateful if you could share the reported Max OD450 for #40 (antibody, V domains shown) VH: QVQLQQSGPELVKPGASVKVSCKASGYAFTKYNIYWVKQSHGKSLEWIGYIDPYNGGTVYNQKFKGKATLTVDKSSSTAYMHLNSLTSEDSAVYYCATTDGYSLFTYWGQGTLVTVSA VL: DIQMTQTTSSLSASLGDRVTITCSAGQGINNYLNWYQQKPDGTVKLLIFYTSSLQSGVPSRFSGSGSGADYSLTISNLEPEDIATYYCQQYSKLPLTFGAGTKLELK .
// result 0.17

// query I would be grateful if you could share the reported Max OD450 for 1D5 (antibody, human IgG1, kappa, V domains shown) VH: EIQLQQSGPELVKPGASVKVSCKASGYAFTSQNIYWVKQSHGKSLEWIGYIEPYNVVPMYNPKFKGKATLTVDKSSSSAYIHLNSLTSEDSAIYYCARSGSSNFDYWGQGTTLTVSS VL: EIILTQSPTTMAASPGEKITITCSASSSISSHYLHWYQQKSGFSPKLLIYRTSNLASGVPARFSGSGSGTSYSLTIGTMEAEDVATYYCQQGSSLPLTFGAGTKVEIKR .
// result 2.81

// query I would be grateful if you could share the reported Max OD450 for #38 (antibody, V domains shown) VH: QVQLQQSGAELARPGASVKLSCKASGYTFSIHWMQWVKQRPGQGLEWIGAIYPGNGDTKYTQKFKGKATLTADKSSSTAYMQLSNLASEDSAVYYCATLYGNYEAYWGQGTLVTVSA VL: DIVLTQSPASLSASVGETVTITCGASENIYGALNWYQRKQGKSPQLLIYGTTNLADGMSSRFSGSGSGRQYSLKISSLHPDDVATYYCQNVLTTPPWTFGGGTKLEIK .
// result 2.97

// query I would be grateful if you could share the reported Max OD450 for 6E1.1.12 (antibody, human IgG1, kappa, V domains shown) VH: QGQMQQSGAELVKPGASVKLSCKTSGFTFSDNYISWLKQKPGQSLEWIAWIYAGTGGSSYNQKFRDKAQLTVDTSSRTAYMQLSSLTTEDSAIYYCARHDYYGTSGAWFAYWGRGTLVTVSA VL: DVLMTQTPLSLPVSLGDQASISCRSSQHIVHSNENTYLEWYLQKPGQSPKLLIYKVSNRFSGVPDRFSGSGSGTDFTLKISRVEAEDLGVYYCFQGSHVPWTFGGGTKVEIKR .
// result 2.42

// query I would be grateful if you could share the reported Max OD450 for #36 (antibody, V domains shown) VH: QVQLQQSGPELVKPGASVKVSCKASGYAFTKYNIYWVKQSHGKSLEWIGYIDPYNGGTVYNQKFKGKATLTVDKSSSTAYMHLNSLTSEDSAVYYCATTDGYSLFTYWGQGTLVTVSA VL: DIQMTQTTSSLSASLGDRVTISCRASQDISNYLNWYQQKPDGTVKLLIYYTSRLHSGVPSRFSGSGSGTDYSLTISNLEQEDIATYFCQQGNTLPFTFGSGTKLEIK .
// result 0.68

// query I would be grateful if you could share the reported Max OD450 for #39 (antibody, V domains shown) VH: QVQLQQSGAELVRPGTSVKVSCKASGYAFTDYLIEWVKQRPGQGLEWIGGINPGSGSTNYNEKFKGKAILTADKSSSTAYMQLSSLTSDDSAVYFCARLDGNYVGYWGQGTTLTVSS VL: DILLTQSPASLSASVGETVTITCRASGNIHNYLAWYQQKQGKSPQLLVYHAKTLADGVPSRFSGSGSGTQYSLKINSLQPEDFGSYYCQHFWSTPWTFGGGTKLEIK .
// result 2.86
